# IC50 listing for each entry below
Subject of test: SCD5 (Homo sapiens, UniProt Q86SK9)
Construct: host or cells: Saccharomyces cerevisiae ole1Δ strain (W303 pdr1Δ pdr3Δ background), plasmid pRS316, TDH3 promoter
Sequence (Q86SK9 1-330): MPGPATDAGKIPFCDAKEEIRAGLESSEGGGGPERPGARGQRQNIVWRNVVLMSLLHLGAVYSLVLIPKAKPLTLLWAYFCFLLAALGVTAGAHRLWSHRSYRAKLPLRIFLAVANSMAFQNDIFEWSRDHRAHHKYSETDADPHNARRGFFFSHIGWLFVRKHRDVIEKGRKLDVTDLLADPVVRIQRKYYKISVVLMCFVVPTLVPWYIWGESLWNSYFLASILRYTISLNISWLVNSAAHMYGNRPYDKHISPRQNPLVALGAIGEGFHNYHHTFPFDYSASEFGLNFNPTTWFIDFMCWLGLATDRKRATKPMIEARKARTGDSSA
Test name: Growth inhibition of yeast (ole1Δ) expressing human SCD5 as the sole desaturase
Assay type: cell-based
Experimental setup: yeast strain with SCD5 plasmid, OD600 growth read at 40 h; read-out: SCD5 IC50

Ask: Param item = Cn1nc(OC(=O)N2CCC(Cc3cc(F)cc(F)c3)CC2)ccc1=O [Compound 109] ; retrieve measured IC50.
Result: 4.85 µM

Ask: Param item = Cn1nc(NC(=O)N2CCC(F)(Cc3ccc(F)c(F)c3)CC2)ccc1=O [Compound 60] ; retrieve measured IC50.
Result: 1.1 µM

Ask: Param item = Cc1cc(NC(=O)N2CCC(Oc3ccc(F)c(F)c3)CC2)nn(C)c1=O [Compound 127] ; retrieve measured IC50.
Result: 0.2 µM

Ask: Param item = Cn1nc(NC(=O)N2CCC(OCc3cccc(F)c3)CC2)ccc1=O [Compound 96] ; retrieve measured IC50.
Result: 26.4 µM

Ask: Param item = Cn1cc(CC(=O)N2CCC(Oc3cccc(Cl)c3)CC2)ccc1=O [Compound 5] ; retrieve measured IC50.
Result: > 45 µM

---
Ask: Param item = Cn1nc(NC(=O)N2CC[C@H](Oc3ccc(F)c(F)c3)C2)ccc1=O [Compound 29] ; retrieve measured IC50.
Result: 2.8 µM

Ask: Param item = Cn1nc(NC(=O)N2CCC(Oc3ccc(Cl)cc3)CC2)ccc1=O [Compound 71] ; retrieve measured IC50.
Result: 4.96 µM

Ask: Param item = COC1(Cc2cccc(F)c2)CCN(C(=O)Nc2ccc(=O)n(C)n2)CC1 [Compound 48] ; retrieve measured IC50.
Result: > 45 µM

Ask: Param item = Cn1nc(NC(=O)N2CCC(Oc3cc(F)ccc3C(F)(F)F)CC2)ccc1=O [Compound 86] ; retrieve measured IC50.
Result: 0.01 µM

---

Subject of test: SCD5 (Homo sapiens)
Construct: host or cells: Saccharomyces cerevisiae ole1Δ strain (W303 pdr1Δ pdr3Δ background), plasmid pRS316, TDH3 promoter
Sequence (Q86SK9 1-330): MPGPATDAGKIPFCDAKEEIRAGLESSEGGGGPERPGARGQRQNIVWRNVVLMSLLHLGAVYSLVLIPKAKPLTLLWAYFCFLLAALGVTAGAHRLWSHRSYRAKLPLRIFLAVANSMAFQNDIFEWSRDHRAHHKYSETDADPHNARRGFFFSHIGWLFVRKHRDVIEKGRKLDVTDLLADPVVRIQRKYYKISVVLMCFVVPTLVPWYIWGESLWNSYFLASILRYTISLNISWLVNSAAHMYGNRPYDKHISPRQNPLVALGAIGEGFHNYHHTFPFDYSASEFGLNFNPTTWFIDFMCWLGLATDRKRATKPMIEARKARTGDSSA
Test name: Growth inhibition of yeast (ole1Δ) expressing human SCD5 as the sole desaturase
Assay type: cell-based
Experimental setup: yeast strain with SCD5 plasmid, OD600 growth read at 40 h; read-out: SCD5 IC50
Metric name: IC50 (nM)
Note: unit nM is implicit; provide only the numeric part.

Solved entries (count: 3):
Ask: Param item = `CN(c1cc(F)cc(F)c1)C1CCN(C(=O)Nc2ccc(=O)n(C)n2)CC1` ; retrieve measured IC50.
Result: 12000

Ask: Param item = `Cn1nc(NC(=O)N2CCC(Cc3cccc(F)c3)CC2)ccc1=O` ; retrieve measured IC50.
Result: 140

Ask: Param item = `Cn1nc(NC(=O)N2CCC(Cc3cc(F)c(F)cc3Cl)CC2)ccc1=O` ; retrieve measured IC50.
Result: 40

---
Ask: Param item = `Cn1nc(-c2nc(N3CCC(Oc4cccc(F)c4Cl)CC3)no2)ccc1=O` ; retrieve measured IC50.
Result: 600

Ask: Param item = `Cn1nc(NC(=O)N2CCC(Oc3cc(F)c(F)c(C#N)c3)CC2)ccc1=O` ; retrieve measured IC50.
Result: 7180
